Recorded values, source patent US8138168B1.

# tgt: Recombinant human renin (Homo sapiens, UniProt P00797)
# Construct: isolate the active form (residues 67-406); made in house; host or cells: FreeStyle 293-F cells (transient expression of pcDNA3.1(+)/hREN)
# Sequence (P00797 67-406): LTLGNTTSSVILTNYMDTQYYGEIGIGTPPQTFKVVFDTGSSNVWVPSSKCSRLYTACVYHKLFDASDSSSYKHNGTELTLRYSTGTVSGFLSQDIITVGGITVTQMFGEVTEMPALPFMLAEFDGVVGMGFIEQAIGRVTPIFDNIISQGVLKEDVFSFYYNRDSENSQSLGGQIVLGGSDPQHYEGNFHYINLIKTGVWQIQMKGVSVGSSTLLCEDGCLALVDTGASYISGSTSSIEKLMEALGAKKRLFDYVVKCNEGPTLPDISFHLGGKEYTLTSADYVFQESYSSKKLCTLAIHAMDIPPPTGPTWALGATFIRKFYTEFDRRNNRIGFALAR
# procedure-summary: In vitro enzymatic activity assay of renin inhibitors (fluorogenic peptide substrate)
# Assay type: biochemical
# condition-parameters: read-out: IC50 of Exemplified Compounds Against Renin
The following molecules are listed with their measured IC50 values.

Examples with their reported IC50 follow.
NC(=O)CCn1c([C@@H]2CCCN(C(=O)C[C@H](N)Cc3ccc(-c4ccc(N)nc4)cc3)C2)nc2ccccc21	100 to 1000 nM
COCCCn1c([C@@H]2CCCN(C(=O)C[C@H](N)Cc3ccc(-c4ccc(C(=O)NCC(C)(C)O)cc4)cc3)C2)nc2ccccc21	< 100 nM

// below: IC50 requested for another molecule
Kindly note the recorded IC50 for O=C(Nc1ccc2c(c1)CCC2)N1CCCC(c2nc3ccccc3[nH]2)C1 (stereo not drawn) , which is > 1000 nM
